Molecular target: APC (Homo sapiens)
Test: FP competitive assay using tracer 1
Assay type: binding
Where a SMILES comes first, the peptide text is derived from it. [ ]: non-standard residue; d: D form. The star is where a group is joined. Bpa = N[C@@H](Cc1ccc(C(=O)c2ccccc2)cc1)C(=O)O; Thiophene2carbonyl = O=C(c1cccs1)*; Bz = O=C(c1ccccc1)*
MEASUREMENT TYPE: pIC50
Hey, just a heads up that pIC50 is the negative log base 10 of the concentration in molar.

Please review the following examples before continuing.
CC(C)C[C@H](NC(=O)[C@H](CO)NC(=O)[C@H](CCC(=O)O)NC(=O)CNC(=O)[C@H](C)NC(=O)c1cccs1)C(=O)N[C@@H](Cc1ccc(O)cc1)C(=O)N[C@@H](CCC(=O)O)C(N)=O [MAI-507] (Thiophene2carbonyl-AGESLYE-NH2); 6.47
CC(C)C[C@H](NC(=O)[C@H](CO)NC(=O)[C@H](CCC(=O)O)NC(=O)CNC(=O)[C@H](C)NC(=O)c1ccccc1)C(=O)N[C@@H](Cc1ccc(O)cc1)C(=O)N[C@H](CCC(=O)O)C(N)=O [MAI-465] (Bz-AGESLY[dE]-NH2); 6.12
CC(C)C[C@H](NC(=O)[C@H](CO)NC(=O)[C@H](CCC(=O)O)NC(=O)CNC(=O)[C@H](C)NC(=O)c1ccccc1)C(=O)N[C@@H](Cc1ccc(O)cc1)C(N)=O [MAI-463] (Bz-AGESLY-NH2); 6.14

// recorded pIC50 for CC(C)C[C@H](NC(=O)[C@H](CO)NC(=O)[C@H](CCC(=O)O)NC(=O)CNC(=O)[C@H](C)NC(=O)c1ccccc1)C(=O)N[C@@H](Cc1ccc(O)cc1)C(=O)N[C@@H](Cc1ccc(C(=O)c2ccccc2)cc1)C(N)=O [MAI-457] (Bz-AGESLY[Bpa]-NH2) : 6.23

* * *

Target: APC (303–739) (Homo sapiens)
Sequence (P25054 303-739): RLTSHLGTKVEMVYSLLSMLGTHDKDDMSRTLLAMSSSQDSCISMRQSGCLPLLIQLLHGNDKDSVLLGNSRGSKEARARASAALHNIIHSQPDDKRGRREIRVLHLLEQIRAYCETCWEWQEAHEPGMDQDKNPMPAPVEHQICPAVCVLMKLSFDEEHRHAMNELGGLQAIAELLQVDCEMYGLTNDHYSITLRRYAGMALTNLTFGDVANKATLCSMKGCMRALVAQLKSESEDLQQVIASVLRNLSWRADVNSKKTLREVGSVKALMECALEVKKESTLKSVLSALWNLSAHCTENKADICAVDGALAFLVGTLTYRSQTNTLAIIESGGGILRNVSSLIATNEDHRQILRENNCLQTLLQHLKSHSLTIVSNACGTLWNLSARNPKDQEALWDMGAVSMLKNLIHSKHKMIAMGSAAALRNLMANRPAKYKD
Assay: FP competitive assay using tracer 7
Assay type: binding
Conditions: Repeat 1; Table 3 source data; read-out: IC50(μM) Repeat 1
Where a SMILES comes first, the peptide text is derived from it. [ ]: non-standard residue; d: D form. The star is where a group is joined. Adamantane1carbonyl = O=C(C12CC3CC(CC(C3)C1)C2)*; Benzoyl(4-Me) = Cc1ccc(C(=O)*)cc1; Pyrrole2CO = O=C(c1ccc[nH]1)*; Picolinoyl = O=C(c1ccccn1)*; X2 = O=C(c1cncs1)*; Mpa = O=C(O)CCS
MEASUREMENT TYPE: IC50
# include the unit after the value

Please review the following examples before continuing.
CC(C)C[C@H](NC(=O)[C@H](CO)NC(=O)[C@H](CCC(=O)O)NC(=O)CNC(=O)[C@H](C)NC(=O)c1ccc[nH]1)C(=O)N[C@@H](Cc1ccc(O)cc1)C(=O)N[C@@H](CCC(=O)O)C(N)=O [MAI-509] (Pyrrole2CO-AGESLYE-NH2); 0.595 µM
CC(C)C[C@H](NC(=O)[C@H](CO)NC(=O)[C@H](CCC(=O)O)NC(=O)CNC(=O)[C@H](C)NC(=O)c1ccccn1)C(=O)N[C@@H](Cc1ccc(O)cc1)C(=O)N[C@@H](CCC(=O)O)C(N)=O [MAI-512] (Picolinoyl-AGESLYE-NH2); 1.04 µM

// recorded IC50 for CC(C)C[C@H](NC(=O)[C@H](CO)NC(=O)[C@H](CCC(=O)O)NC(=O)CNC(=O)[C@H](C)NC(=O)c1cncs1)C(=O)N[C@@H](Cc1ccc(O)cc1)C(=O)N[C@@H](CCC(=O)O)C(N)=O [MAI-508] (X2-AGESLYE-NH2) : 0.221 µM

// recorded IC50 for CC(C)C[C@H](NC(=O)[C@H](CO)NC(=O)[C@H](CCC(=O)O)NC(=O)CNC(=O)[C@H](C)NC(=O)C12CC3CC(CC(C3)C1)C2)C(=O)N[C@@H](Cc1ccc(O)cc1)C(=O)N[C@@H](CCC(=O)O)C(N)=O [MAI-505] (Adamantane1carbonyl-AGESLYE-NH2) : 1.57 µM

// recorded IC50 for CC(C)C[C@H](NC(=O)[C@H](CO)NC(=O)[C@H](CCC(=O)O)NC(=O)CNC(=O)[C@H](C)NC(=O)CCS)C(=O)N[C@@H](Cc1ccc(O)cc1)C(=O)N[C@@H](CCC(=O)O)C(N)=O [MAI-502] ([Mpa]AGESLYE-NH2) : 2.46 µM

// recorded IC50 for Cc1ccc(C(=O)N[C@@H](C)C(=O)NCC(=O)N[C@@H](CCC(=O)O)C(=O)N[C@@H](CO)C(=O)N[C@@H](CC(C)C)C(=O)N[C@@H](Cc2ccc(O)cc2)C(=O)N[C@@H](CCC(=O)O)C(N)=O)cc1 [MAI-515] ({Benzoyl(4-Me)}-AGESLYE-NH2) : 0.261 µM

* * *

Biological target: APC (303–739) (Homo sapiens)
Experiment: FP competitive assay using tracer 7
Type: binding
Conditions: Repeat 2; Table 3 source data; read-out: IC50(μM) Repeat 2
Where a SMILES comes first, the peptide text is derived from it. The star is where a group is joined. Cyclopentanecarbonyl = O=C(C1CCCC1)*; Benzoyl(4-OMe) = COc1ccc(C(=O)*)cc1
MEASUREMENT TYPE: log10 IC50 (log10 of the value in µM)
Please be aware that the numbers have been log10-transformed from IC50 in µM.

COc1ccc(C(=O)N[C@@H](C)C(=O)NCC(=O)N[C@@H](CCC(=O)O)C(=O)N[C@@H](CO)C(=O)N[C@@H](CC(C)C)C(=O)N[C@@H](Cc2ccc(O)cc2)C(=O)N[C@@H](CCC(=O)O)C(N)=O)cc1 [MAI-516] ({Benzoyl(4-OMe)}-AGESLYE-NH2); -1.39

From here, focus on the item given below.
// recorded log10 IC50 for CC(C)C[C@H](NC(=O)[C@H](CO)NC(=O)[C@H](CCC(=O)O)NC(=O)CNC(=O)[C@H](C)NC(=O)C1CCCC1)C(=O)N[C@@H](Cc1ccc(O)cc1)C(=O)N[C@@H](CCC(=O)O)C(N)=O [MAI-503] (Cyclopentanecarbonyl-AGESLYE-NH2) : 0.72

* * *

Quick list: IC50 per entry.
Biological target: APC (Homo sapiens, UniProt P25054)
Sequence (P25054 303-739): as above
Assay: FP competitive assay using tracer 1
Assay type: binding
Where a SMILES comes first, the peptide text is derived from it. [ ]: non-standard residue; d: D form. The star is where a group is joined. Bpa = N[C@@H](Cc1ccc(C(=O)c2ccccc2)cc1)C(=O)O; 2Furoyl = O=C(c1ccco1)*; Bz = O=C(c1ccccc1)*
Quick reminder: number only, in nM, skip the unit.

Please review the following examples before continuing.
C[C@H](NC(=O)c1ccccc1)C(=O)NCC(=O)N[C@@H](CCC(=O)O)C(=O)N[C@@H](CO)C(=O)N[C@@H](Cc1ccc(O)cc1)C(=O)N[C@@H](Cc1ccc(O)cc1)C(=O)N[C@@H](CCC(=O)O)C(N)=O [MAI-458] (Bz-AGESYYE-NH2); 590
CC(C)C[C@H](NC(=O)[C@H](CO)NC(=O)[C@H](CCC(=O)O)NC(=O)CNC(=O)[C@H](C)NC(=O)c1ccccc1)C(=O)N[C@@H](Cc1c[nH]c2ccccc12)C(=O)N[C@@H](CCC(=O)O)C(N)=O [MAI-452] (Bz-AGESLWE-NH2); 440

From here, focus on the item given below.
// recorded IC50 for CC(C)C[C@H](NC(=O)[C@H](CO)NC(=O)[C@H](CCC(=O)O)NC(=O)CNC(=O)[C@H](C)NC(=O)c1ccco1)C(=O)N[C@@H](Cc1ccc(O)cc1)C(=O)N[C@@H](Cc1ccc(C(=O)c2ccccc2)cc1)C(N)=O [MAI-454] (2Furoyl-AGESLY[Bpa]-NH2) : 480

* * *

Quick list: IC50 per entry.
Molecular target: APC (303–739) (Homo sapiens)
Test: FP competitive assay using tracer 7
Assay type: binding
Details: Repeat 2; Table 3 source data; read-out: IC50(μM) Repeat 2
Where a SMILES comes first, the peptide text is derived from it. [ ]: non-standard residue; d: D form. The star is where a group is joined. Adamantane1carbonyl = O=C(C12CC3CC(CC(C3)C1)C2)*; Isonicotinoyl = O=C(c1ccncc1)*; Picolinoyl = O=C(c1ccccn1)*; Mpa = O=C(O)CCS

Please review the following examples before continuing.
CC(C)C[C@H](NC(=O)[C@H](CO)NC(=O)[C@H](CCC(=O)O)NC(=O)CNC(=O)[C@H](C)NC(=O)c1ccccn1)C(=O)N[C@@H](Cc1ccc(O)cc1)C(=O)N[C@@H](CCC(=O)O)C(N)=O [MAI-512] (Picolinoyl-AGESLYE-NH2); 0.958 µM
CC(C)C[C@H](NC(=O)[C@H](CO)NC(=O)[C@H](CCC(=O)O)NC(=O)CNC(=O)[C@H](C)NC(=O)C12CC3CC(CC(C3)C1)C2)C(=O)N[C@@H](Cc1ccc(O)cc1)C(=O)N[C@@H](CCC(=O)O)C(N)=O [MAI-505] (Adamantane1carbonyl-AGESLYE-NH2); 1.73 µM

// recorded IC50 for CC(C)C[C@H](NC(=O)[C@H](CO)NC(=O)[C@H](CCC(=O)O)NC(=O)CNC(=O)[C@H](C)NC(=O)c1ccncc1)C(=O)N[C@@H](Cc1ccc(O)cc1)C(=O)N[C@@H](CCC(=O)O)C(N)=O [MAI-514] (Isonicotinoyl-AGESLYE-NH2) : 0.128 µM

// recorded IC50 for CC(C)C[C@H](NC(=O)[C@H](CO)NC(=O)[C@H](CCC(=O)O)NC(=O)CNC(=O)[C@H](C)NC(=O)CCS)C(=O)N[C@@H](Cc1ccc(O)cc1)C(=O)N[C@@H](CCC(=O)O)C(N)=O [MAI-502] ([Mpa]AGESLYE-NH2) : 1.52 µM
